Measured values drawn from ChEMBL document CHEMBL1143161 for this set.

- STUDY_TARGET: Transketolase (Homo sapiens)
- EXPERIMENT: Inhibition of apo-transketolase
REPORTED_METRIC: pKd
Please report pKd as the negative decimal logarithm of the molar concentration, giving only the number.

Request the reported pKd associated with Cc1ncc(Cn2c(C)c(CCO)sc2=O)c(N)n1 [THIAMINE THIAZOLONE]
4.47

Bench note: what pKd did Cc1ncc(C[n+]2csc(CCO)c2C)c(N)n1 [THIAMINE ION] show?
2.17

Can you look up the measured pKd of "Cc1c(Cc2cnc(N)nc2N)csc1CCO" for me?
5.66

For the compound "Cc1ncc(Cn2c(C)c(CCO[P@@](=O)(O)OP(=O)(O)O)sc2=O)c(N)n1" , what pKd is on record?
7.80

May I ask what pKd has been recorded for Cc1ncc(Cc2csc(CCO)c2C)c(N)n1 [3-DEAZATHIAMINE] ?
4.74

Fill blank: measured pKd of the compound "CC(=O)Nc1ncc(Cc2csc(CCO)c2C)c(N)n1" is ____.
5.96

----------
Please respond with reported EC50 for every item in the list.
- STUDY_TARGET: Transketolase (Homo sapiens, UniProt P29401)
- Sequence (P29401 whole entry): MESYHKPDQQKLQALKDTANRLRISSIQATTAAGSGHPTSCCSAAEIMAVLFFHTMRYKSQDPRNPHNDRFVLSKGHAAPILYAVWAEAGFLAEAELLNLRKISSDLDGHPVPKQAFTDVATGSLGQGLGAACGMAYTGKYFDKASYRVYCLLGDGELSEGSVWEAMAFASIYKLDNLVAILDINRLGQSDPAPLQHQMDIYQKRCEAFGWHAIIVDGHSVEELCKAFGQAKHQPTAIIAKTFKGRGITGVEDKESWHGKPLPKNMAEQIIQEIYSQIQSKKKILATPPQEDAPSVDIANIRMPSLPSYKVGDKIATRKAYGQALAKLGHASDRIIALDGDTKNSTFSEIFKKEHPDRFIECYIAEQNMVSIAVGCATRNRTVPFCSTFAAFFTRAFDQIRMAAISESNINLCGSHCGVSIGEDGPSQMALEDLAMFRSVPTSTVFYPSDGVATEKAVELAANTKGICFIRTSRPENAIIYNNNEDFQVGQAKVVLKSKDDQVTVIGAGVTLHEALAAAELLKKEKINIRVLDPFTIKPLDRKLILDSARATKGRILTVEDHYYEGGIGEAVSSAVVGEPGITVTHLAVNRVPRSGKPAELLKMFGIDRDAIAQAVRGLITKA
- EXPERIMENT: Inhibition of transketolase in human HCT116 cells
Reply numerically in µM, unit not repeated.

// returns reported EC50 for input "CC(=O)Nc1ncc(Cc2csc(CCO)c2C)c(N)n1"
6.3

// returns reported EC50 for input "Cc1c(Cc2cncnc2N)csc1CCO"
52

Consider the compound shown here: "Cc1ncc(Cn2c(C)c(CCO)sc2=O)c(N)n1" What is its recorded EC50?
2.71

Recorded EC50 for "Cc1c(Cc2cnc(C3CC3)nc2N)csc1CCO" , please?
0.66

I have this compound here, "Cc1ncc(Cc2[nH]nc(CCO)c2C)c(N)n1" , and I need its recorded EC50.
17

What EC50 value was documented for this compound, "Cc1c(Cc2cnc(N)nc2N)csc1CCO" ?
8.5

Sample "Cc1ncc(Cc2c(C)c(CCO)nn2C)c(N)n1" — what was its EC50?
1.1

Please look up its EC50: "Cc1c(Cc2cnc(C(C)C)nc2N)csc1CCO"
2.6

Which EC50 reading was recorded for the compound "Cc1c(Cc2cnc(C(F)(F)F)nc2N)csc1CCO" ?
25

# lookup: EC50 of "Cc1ccc(Cn2c(C)c(CCO)sc2=O)c(N)n1"
3.24

State the recorded EC50 for this entry: "Cc1ncc(Cc2csc(CCO)c2C)c(N)n1"
1.2

What EC50 value was documented for this compound, "Cc1ncc(Cc2nn(C)c(CCO)c2C)c(N)n1" ?
4.7

----------
- STUDY_TARGET: Transketolase (Homo sapiens, UniProt P29401)
- EXPERIMENT: Inhibition of apo-transketolase by coupled TPPK/Apo-TK enzymatic assay
Exercise: for every item that follows, state its recorded pKd.
Scale note: pKd = -log10(concentration in M).

Given the entry "Cc1c(Cc2cnc(C(C)C)nc2N)csc1CCO" , report its measured pKd.
7.19

Could you tell me which pKd is on file for "CC(=O)Nc1ncc(Cc2csc(CCO)c2C)c(N)n1" ?
8.52

Find the recorded pKd belonging to "Cc1c(Cc2cnc(C(F)(F)F)nc2N)csc1CCO" and report it.
7.20

GET /values?readout=pKd&item= "Cc1ncc(Cc2csc(CCO)c2C)c(N)n1"
7.92

Please report the recorded pKd for "Cc1c(Cc2cnc(-c3ccccc3)nc2N)csc1CCO" .
6.64

Which pKd is listed for "Cc1c(Cc2cnc(C3CC3)nc2N)csc1CCO" ?
7.22

----------
- STUDY_TARGET: Transketolase (Homo sapiens, UniProt P29401)
- EXPERIMENT: Inhibition of apo-transketolase
pKd: −log10 of the molar value.
REPORTED_METRIC: pKd

Returns the measured pKd for the input compound. Input: "Cc1c(Cc2cnc(C(C)C)nc2N)csc1CCO"
< 3.30

For the compound "Cc1c(Cc2cnc(-c3ccccc3)nc2N)csc1CCO" , what pKd is on record?
< 3.30

Which measured pKd value corresponds to "Cc1ccc(Cn2c(C)c(CCO)sc2=O)c(N)n1" ?
< 3.30

Look up pKd: "Cc1c(Cc2cnc(C3CC3)nc2N)csc1CCO"
< 3.30

Fill in: pKd of "Cc1c(Cc2cncnc2N)csc1CCO" is ___
< 4.00
